Data provenance is ChEMBL document CHEMBL2390863.

target: Acetylcholinesterase (Electrophorus electricus, UniProt O42275); test: Inhibition of electric eel AChE using acetylthiocholine iodide as substrate preincubated for 10 mins prior to substrate addition by Ellman's method
Sequence (O42275 whole entry): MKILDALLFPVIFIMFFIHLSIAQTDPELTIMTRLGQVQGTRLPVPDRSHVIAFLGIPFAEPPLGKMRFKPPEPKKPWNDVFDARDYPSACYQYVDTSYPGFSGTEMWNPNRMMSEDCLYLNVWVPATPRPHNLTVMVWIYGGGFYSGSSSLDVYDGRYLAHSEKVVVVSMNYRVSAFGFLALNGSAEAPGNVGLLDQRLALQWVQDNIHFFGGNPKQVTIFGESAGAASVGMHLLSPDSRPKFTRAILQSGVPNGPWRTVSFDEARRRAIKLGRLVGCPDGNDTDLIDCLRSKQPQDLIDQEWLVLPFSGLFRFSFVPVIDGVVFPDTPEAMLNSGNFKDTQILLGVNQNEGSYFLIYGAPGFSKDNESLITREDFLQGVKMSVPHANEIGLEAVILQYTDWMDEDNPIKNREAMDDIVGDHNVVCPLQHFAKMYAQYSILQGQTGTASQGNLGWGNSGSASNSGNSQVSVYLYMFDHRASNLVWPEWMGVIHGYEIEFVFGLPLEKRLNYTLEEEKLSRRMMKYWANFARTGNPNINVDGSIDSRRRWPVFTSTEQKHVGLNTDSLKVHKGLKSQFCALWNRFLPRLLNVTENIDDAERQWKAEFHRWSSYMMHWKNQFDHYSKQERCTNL
pIC50: −log10 of the molar value.
Listing of entries alongside the reported pIC50.

Example results:
O=C(CCCOc1cc(=O)oc2ccccc12)N1CCN(c2ccccc2O)CC1    < 4.00
O=C(CCCOc1cc(=O)oc2ccccc12)NC1CCN(Cc2ccccc2)CC1    5.63
O=C(COc1cc(=O)oc2ccccc12)N1CCN(c2ccc(F)cc2)CC1    5.68
O=C(COc1cc(=O)oc2ccccc12)N1CCC(O)(c2ccc(Cl)cc2)CC1    < 4.00
COc1ccc(CCNC(=O)CCCOc2cc(=O)oc3ccccc23)cc1OC    < 4.00
O=C(CCCOc1cc(=O)oc2ccccc12)N1CCC(O)(c2ccc(Cl)cc2)CC1    < 4.00
O=C(CCCOc1cc(=O)oc2ccccc12)N1CCN(c2ccccc2F)CC1    < 4.00
O=C(CCCOc1cc(=O)oc2ccccc12)N1CCN(c2ccccc2)CC1    < 4.00
O=C(COc1cc(=O)oc2ccccc12)N1CCC(O)(c2ccc(Br)cc2)CC1    < 4.00

Field request: pIC50 | item: `O=C(COc1cc(=O)oc2ccccc12)NC1CCN(Cc2ccccc2)CC1`
5.92
